pKi: −log10 of the molar value.
Here we gather pKi data for UniProt:P43115 reported by several publications.
Kind request: treat 7 as inclusive, so pKi at 7 or higher is MET, anything lower is NOT MET.

[[record]]
item_smiles = "Cc1cccc(OCCCOc2ccc(-c3ccccc3CC(C)(C)C(=O)NS(=O)(=O)c3cccs3)cc2)c1"
label = "NOT MET"

[[record]]
item_smiles = "CO[C@](C(=O)NS(=O)(=O)c1ccccc1-c1ccc(CN2C(=O)c3ccccc3CCc3ccccc32)cc1)(c1ccccc1)C(F)(F)F"
label = "NOT MET"

[[record]]
item_smiles = "CSc1cccc(-c2ccccc2CCC(=O)NS(=O)(=O)c2cccs2)c1"
label = "NOT MET"


State whether the measured pKi reaches 7, counting equality as reaching it, for C[C@H](NC(=O)c1cscc1Cc1cccc(Cl)c1)c1ccc(C(=O)O)cc1 NOT MET

State whether the measured pKi reaches 7, counting equality as reaching it, for O=C1NC(=O)/C(=C/C2(c3ccc(-c4ccc5cccc(F)c5c4)[nH]c3=O)CC2)O1 MET

State whether the measured pKi reaches 7, counting equality as reaching it, for COc1ccc2cc(OCC3(C(=O)O)CN(C(=O)c4ccc(F)cc4)C3)ccc2c1 NOT MET

====

Here we gather Ki data for Prostaglandin E2 receptor EP3 subtype (Homo sapiens, UniProt P43115) reported by several publications.
# output: bare number, implied unit nM

Examples from the recorded data:
[[record]]
compound = "C/C(=C1/OC(=O)NC1=O)C(c1ccc(-c2ccc3cccc(F)c3c2)[nH]c1=O)C(C)C (centres undefined)"
numeric_value = 17

[[record]]
compound = "C[C@@H](c1ccc(C(F)(F)F)cc1)n1c2c(c3cc(F)cc(S(C)(=O)=O)c31)CCC[C@@H]2CC(=O)O"
numeric_value = 830

[[record]]
compound = "c1ccc(CCSCc2ccc(-c3ccccc3CCc3nnn[nH]3)cc2)cc1"
numeric_value = 1000

[[record]]
compound = "O=C(O)/C=C/c1ccccc1/C=C/Cc1cccc(CO)c1OCc1c(Cl)cccc1Cl.O=C(O)/C=C/c1ccccc1C/C=C/c1cccc(CO)c1OCc1c(Cl)cccc1Cl"
numeric_value = 13


API: the following record is the query input.
Report measured Ki; entry is O=C(O)CCc1ccccc1-c1cc(-c2ccccc2OCc2ccccc2)cs1 27

====

Here we gather Ki data for Prostaglandin E2 receptor EP3 subtype (Homo sapiens) reported by several publications.
- target-or-test-system: Prostaglandin E2 receptor EP3 subtype (Homo sapiens)
- Sequence (P43115 whole entry): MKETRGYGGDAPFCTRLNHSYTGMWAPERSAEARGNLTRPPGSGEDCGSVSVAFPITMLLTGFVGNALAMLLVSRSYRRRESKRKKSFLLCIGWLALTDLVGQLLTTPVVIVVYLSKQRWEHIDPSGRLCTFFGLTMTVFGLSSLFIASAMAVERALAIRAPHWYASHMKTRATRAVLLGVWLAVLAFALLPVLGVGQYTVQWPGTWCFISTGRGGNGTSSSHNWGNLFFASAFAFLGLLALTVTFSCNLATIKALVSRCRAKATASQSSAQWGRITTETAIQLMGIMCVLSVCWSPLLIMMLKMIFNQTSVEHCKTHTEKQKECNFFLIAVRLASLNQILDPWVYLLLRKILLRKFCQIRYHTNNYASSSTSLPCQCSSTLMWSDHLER
# output: bare number, implied unit nM

Examples from the recorded data:
[[record]]
compound = "COc1cc(C/C=C/c2ccccc2/C=C/C(=O)O)ccc1OCCNC(=S)Nc1ccc(-c2c3ccc(=O)cc-3oc3cc(O)ccc23)c(C(=O)O)c1"
target_or_test_system = "Prostaglandin E2 receptor EP3 subtype (Homo sapiens)"
parameter_measured = "Ki"
numeric_value = 678

[[record]]
compound = "O=C(CCCc1ccccc1-c1ccc(CSCCc2ccccc2)cc1)NS(=O)(=O)c1cccs1"
target_or_test_system = "Prostaglandin E2 receptor EP3 subtype (Homo sapiens)"
parameter_measured = "Ki"
numeric_value = 200


Report measured Ki; entry is COc1cc(/C=C\Cc2ccccc2/C=C/C(=O)O)ccc1OCc1ccccc1.COc1cc(C/C=C/c2ccccc2/C=C/C(=O)O)ccc1OCc1ccccc1 8

Report measured Ki; entry is CC(=O)c1ccc(OCc2ccccc2)c(/C=C/Cc2ccccc2/C=C/C(=O)O)c1.CC(=O)c1ccc(OCc2ccccc2)c(C/C=C/c2ccccc2/C=C/C(=O)O)c1 260

Report measured Ki; entry is O=C(O)C1CC1c1ccccc1-c1csc(-c2ccccc2OCc2ccccc2)c1 (configuration not stated) 3

Report measured Ki; entry is CC(Cc1ccccc1-c1csc(-c2ccccc2OCc2ccccc2)c1)C(=O)O (configuration not stated) 460

Report measured Ki; entry is C=CCC1([C@@H](O)C/C=C/[C@@H]2[C@@H](C/C=C\CCCC(=O)O)[C@H](Cl)C[C@H]2O)CCC1 2700

Report measured Ki; entry is O=S(=O)(CCc1ccccc1-c1ccc(CSCCc2ccccc2)cc1)NS(=O)(=O)c1cccs1 610

Report measured Ki; entry is O=C(O)CNc1ccccc1-c1csc(-c2ccccc2OCc2ccccc2)c1 52

Report measured Ki; entry is CCC(/C=C1\OC(=O)NC1=O)(CC)c1ccc(-c2ccc3cc(F)cc(F)c3c2)[nH]c1=O 28

====

Here we gather Ki data for Prostaglandin E2 receptor EP3 subtype (Homo sapiens, UniProt P43115) reported by several publications.
- target-or-test-system: Prostaglandin E2 receptor EP3 subtype (Homo sapiens, UniProt P43115)
- Sequence (P43115 whole entry): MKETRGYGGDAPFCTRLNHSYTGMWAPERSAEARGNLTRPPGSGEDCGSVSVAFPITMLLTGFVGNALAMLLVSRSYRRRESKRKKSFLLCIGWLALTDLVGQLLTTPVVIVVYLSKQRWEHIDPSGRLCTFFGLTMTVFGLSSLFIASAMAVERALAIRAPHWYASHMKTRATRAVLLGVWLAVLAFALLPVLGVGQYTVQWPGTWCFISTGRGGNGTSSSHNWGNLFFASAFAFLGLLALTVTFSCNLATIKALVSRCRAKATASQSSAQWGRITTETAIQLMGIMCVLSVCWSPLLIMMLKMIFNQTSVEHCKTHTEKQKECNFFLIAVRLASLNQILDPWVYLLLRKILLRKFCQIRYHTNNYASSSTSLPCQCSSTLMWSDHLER
Cut-off 7 µM on Ki: below means True, at or above means False.

These solved cases illustrate the format of a correct answer.
[[record]]
item_smiles = "O=C(O)CCc1ccccc1-c1cccc(-c2ccccc2)c1"
label = "True"

[[record]]
item_smiles = "CCCC/C(C)=C\\C=C\\[C@H]1CCC(=O)N1CCc1ccc(C(=O)O)cc1"
label = "False"

[[record]]
item_smiles = "O=C(O)c1ccc(C2(NC(=O)c3cccc4ccn(Cc5ccc(C(F)(F)F)cc5)c34)CC2)cc1"
label = "False"


Field: below-cutoff. Rule: recorded Ki strictly less than 7 µM. Subject: CCCCC[C@H](O)/C=C/[C@H]1CCC(=O)N1CCCCCCC(=O)O True

====

Here we gather Ki data for UniProtKB P43115 reported by several publications.
- target-or-test-system: UniProtKB P43115
- Sequence (P43115 whole entry): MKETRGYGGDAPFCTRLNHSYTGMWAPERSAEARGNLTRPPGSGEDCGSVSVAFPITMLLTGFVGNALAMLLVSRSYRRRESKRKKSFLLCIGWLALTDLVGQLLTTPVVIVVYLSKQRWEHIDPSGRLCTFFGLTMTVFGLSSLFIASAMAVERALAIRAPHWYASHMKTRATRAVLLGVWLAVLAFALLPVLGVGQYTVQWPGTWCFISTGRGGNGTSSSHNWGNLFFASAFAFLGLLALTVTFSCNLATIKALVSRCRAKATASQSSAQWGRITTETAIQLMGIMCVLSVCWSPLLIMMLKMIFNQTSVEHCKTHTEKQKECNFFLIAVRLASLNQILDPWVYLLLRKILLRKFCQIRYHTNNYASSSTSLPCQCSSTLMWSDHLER

Examples from the recorded data:
[[record]]
molecule = "Cc1cc(O)ccc1-c1cccc([C@H](O)CC[C@H]2CCC(=O)N2CCCCCCC(=O)O)c1"
result = "> 100000 nM"

[[record]]
molecule = "COc1cc(C/C=C/c2ccccc2/C=C/C(=O)O)ccc1OCCn1cc2ccccc2c1C#N"
result = "18 nM"


Report measured Ki; entry is O=C(O)c1csc(-n2nc(-c3ccccc3O)cc2C(F)(F)F)n1 > 5000 nM

Report measured Ki; entry is O=C(O)COc1cccc(C[C@@H]2CCCC=C2c2nc(-c3ccccc3)c(-c3ccccc3)o2)c1 6800 nM

Report measured Ki; entry is O=C(CCc1ccccc1-c1ccc(OCCCOc2cccc(CSCCc3ccccc3)c2)cc1)NS(=O)(=O)c1cccs1 16 nM

Report measured Ki; entry is CS(=O)(=O)c1cccc(-c2ccccc2CCC(=O)NS(=O)(=O)c2cccs2)c1 5900 nM

Report measured Ki; entry is CCC(/C=C1\OC(=O)NC1=O)(CC)c1ccc(-c2ccc3c(c2)OC(C)(C)CC3)[nH]c1=O 2600 nM

Report measured Ki; entry is Cc1sc(C)c(C(=O)NC2(c3ccc(-c4nn[nH]n4)cc3)CC2)c1Cc1ccc(C(F)(F)F)cc1 > 501 nM
